assay: collision cross section in nitrogen (drift tube, single-field); higher = larger gas-phase ion size; details: ion type: [M-H]; ion source: ESI; ion mode: Negative;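 also: chemical standards at 10 µM analysed by drift tube IMS-QTOF MS in about 3.95 torr nitrogen, mean of duplicate injections differing ≤1%, mass error below 10 ppm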
Structures can show the parent of a compound that is named as a salt.
assay.metric: collision cross section in nitrogen (Å²)
Give just the number in Å²; leave the unit off.

| compound | result.units | collision cross section in nitrogen |
| --- | --- | --- |
| CC1=NN(c2cc(S(=O)(=O)O)ccc2Cl)C(=O)C1/N=N/c1ccccc1 (stereo not given) [C.I. Acid Yellow 34, monosodium salt] | Å² | 202.7 |
| Cc1c(-c2cccnc2)c2ccccc2n1CCCCC(=O)O | Å² | 183.7 |
| Cc1cc(=O)[nH]c(=O)[nH]1 | Å² | 120.5 |
| CC1C(C)(C)C2=C(C(=O)CCC2)C1(C)C (stereo not given) | Å² | 154.6 |

Proceeding to the next compound to report its collision cross section in nitrogen.
Problem: Consider the compound Oc1ccccc1Cc1ccccc1O [2,2′-Methylenebis[phenol]] and give its measured collision cross section in nitrogen.
Solution: 142.9

The reported numbers originate from the supplement of paper PMC12317010.
